- Assay summary: Single-dose HOSU-53 PK in mice
- Assay type: in vivo, male C57BL/6 mice
- Assay conditions: male, C57BL/6, mouse, plasma, oral, 10 mg/kg, 10 mpk PO; 0.5 h postdose; per mouse
Quantity measured: concentration at 0.5 h (µM)
# unit: µM | format: bare number

Query: Data request, read-out concentration at 0.5 h, for `CCCCOc1cccc(-c2ccc(-c3cc(C(=O)O)c4cc(F)ccc4n3)cc2)c1`
Reply: 155

###

- Assay summary: HOSU-53 plasma exposure in MOLM-13 tumor-bearing mice
- Format: in vivo, NCG mice
- Assay conditions: male, NCG, mouse, plasma, po, 4 mg/kg, Day 14; 4 mpk PO, male mice; per mouse; read-out: HOSU-53 AUCall
Quantity measured: AUC (µM·h)
# unit: µM·h | format: bare number

Query: Data request, read-out AUC, for `CCCCOc1cccc(-c2ccc(-c3cc(C(=O)O)c4cc(F)ccc4n3)cc2)c1`
Reply: 1930

###

- Assay summary: In vivo p.o. PK in rat
- Assay conditions: po, read-out: in vivo p.o. t1/2 (converted)
Quantity measured: half-life (h)
# unit: h | format: bare number

Query: Data request, read-out half-life, for `CCCCOc1cccc(-c2ccc(-c3cc(C(=O)O)c4cc(F)ccc4n3)cc2)c1`
Reply: 7.6

###

- Tested target: CYP 1A2 (Homo sapiens)
- Sequence (P05177 1-516): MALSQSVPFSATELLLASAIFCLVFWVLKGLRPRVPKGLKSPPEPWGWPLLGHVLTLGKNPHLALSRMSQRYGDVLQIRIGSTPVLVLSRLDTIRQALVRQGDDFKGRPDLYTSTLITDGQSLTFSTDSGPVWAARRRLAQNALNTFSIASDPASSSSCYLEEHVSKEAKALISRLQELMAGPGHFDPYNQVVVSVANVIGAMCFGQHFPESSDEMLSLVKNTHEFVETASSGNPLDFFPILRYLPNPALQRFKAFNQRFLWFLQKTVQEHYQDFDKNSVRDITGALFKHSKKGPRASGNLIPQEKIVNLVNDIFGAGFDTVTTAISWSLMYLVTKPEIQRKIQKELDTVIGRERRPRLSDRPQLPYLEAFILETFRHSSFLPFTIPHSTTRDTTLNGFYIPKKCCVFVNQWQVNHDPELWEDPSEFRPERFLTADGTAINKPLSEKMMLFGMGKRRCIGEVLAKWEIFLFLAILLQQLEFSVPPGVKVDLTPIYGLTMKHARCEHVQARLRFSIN
Quantity measured: IC50 (µM)
# unit: µM | format: bare number

Query: Data request, read-out IC50, for CCCCOc1cccc(-c2ccc(-c3cc(C(=O)O)c4cc(F)ccc4n3)cc2)c1 [HOSU-53]
Reply: 19.6

###

Listing of entries alongside the reported IC50.
- Tested target: human DHODH (hDHODH, amino acid residues 31-395) (Homo sapiens)
- Construct: purchased Reaction Biology (assay run there as a service)
- Sequence (Q02127 31-395): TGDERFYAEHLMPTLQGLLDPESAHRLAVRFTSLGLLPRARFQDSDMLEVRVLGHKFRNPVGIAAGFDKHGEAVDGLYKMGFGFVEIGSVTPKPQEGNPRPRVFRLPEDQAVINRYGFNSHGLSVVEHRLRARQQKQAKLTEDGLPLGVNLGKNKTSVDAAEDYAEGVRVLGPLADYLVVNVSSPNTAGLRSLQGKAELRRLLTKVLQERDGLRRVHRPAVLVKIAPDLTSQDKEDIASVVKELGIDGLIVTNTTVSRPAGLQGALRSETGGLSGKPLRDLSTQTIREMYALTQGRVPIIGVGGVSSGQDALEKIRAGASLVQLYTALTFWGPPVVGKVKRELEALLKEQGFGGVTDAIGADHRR
- Assay summary: Cell-free human DHODH enzyme inhibition assay
- Type: biochemical
- Assay conditions: cell-free; HOSU-53, BAY, BRQ averaged from 6, 10, 4 replicates; read-out: hDHODH IC50
- Description: Details are described in the Supplemental Methods. […] Enzyme inhibition of human DHODH […] performed at Reaction Biology (Malvern, PA, USA). Briefly, a two-step fluorescence-based assay was used to test compounds in duplicates using a 10-dose IC50 mode with 3-fold serial dilution starting at 1 µM or 10 µM. The enzymatic step for hDHODH (used at […] to orotate and followed by resazurin (used at 60 or 80 µM per reaction) catalyzed to […] resorufin. […]
# unit: nM | format: bare number

[[record]]
compound = "CCCCOc1cccc(-c2ccc(-c3cc(C(=O)O)c4cc(F)ccc4n3)cc2)c1"
quantity_measured = "IC50"
assay_result = 0.95

[[record]]
compound = "COc1ccc([C@H]2c3[nH]c4ccc(Cl)cc4c3CCN2C(=O)Oc2ccc(Cl)cc2)cc1 [PTC299, reference compound]"
quantity_measured = "IC50"
assay_result = 686


Okay, next one:
Query: Data request, read-out IC50, for Cc1ccccc1-c1ccc(-c2cc(C(=O)O)c3c(c2)nnn3C)cc1 [AG-636, reference compound]
Reply: 3.38
